molecular target: human c-Met (human, UniProt P08581 25-1390); assay: cell-based or functional assay
Sequence (P08581 25-1390): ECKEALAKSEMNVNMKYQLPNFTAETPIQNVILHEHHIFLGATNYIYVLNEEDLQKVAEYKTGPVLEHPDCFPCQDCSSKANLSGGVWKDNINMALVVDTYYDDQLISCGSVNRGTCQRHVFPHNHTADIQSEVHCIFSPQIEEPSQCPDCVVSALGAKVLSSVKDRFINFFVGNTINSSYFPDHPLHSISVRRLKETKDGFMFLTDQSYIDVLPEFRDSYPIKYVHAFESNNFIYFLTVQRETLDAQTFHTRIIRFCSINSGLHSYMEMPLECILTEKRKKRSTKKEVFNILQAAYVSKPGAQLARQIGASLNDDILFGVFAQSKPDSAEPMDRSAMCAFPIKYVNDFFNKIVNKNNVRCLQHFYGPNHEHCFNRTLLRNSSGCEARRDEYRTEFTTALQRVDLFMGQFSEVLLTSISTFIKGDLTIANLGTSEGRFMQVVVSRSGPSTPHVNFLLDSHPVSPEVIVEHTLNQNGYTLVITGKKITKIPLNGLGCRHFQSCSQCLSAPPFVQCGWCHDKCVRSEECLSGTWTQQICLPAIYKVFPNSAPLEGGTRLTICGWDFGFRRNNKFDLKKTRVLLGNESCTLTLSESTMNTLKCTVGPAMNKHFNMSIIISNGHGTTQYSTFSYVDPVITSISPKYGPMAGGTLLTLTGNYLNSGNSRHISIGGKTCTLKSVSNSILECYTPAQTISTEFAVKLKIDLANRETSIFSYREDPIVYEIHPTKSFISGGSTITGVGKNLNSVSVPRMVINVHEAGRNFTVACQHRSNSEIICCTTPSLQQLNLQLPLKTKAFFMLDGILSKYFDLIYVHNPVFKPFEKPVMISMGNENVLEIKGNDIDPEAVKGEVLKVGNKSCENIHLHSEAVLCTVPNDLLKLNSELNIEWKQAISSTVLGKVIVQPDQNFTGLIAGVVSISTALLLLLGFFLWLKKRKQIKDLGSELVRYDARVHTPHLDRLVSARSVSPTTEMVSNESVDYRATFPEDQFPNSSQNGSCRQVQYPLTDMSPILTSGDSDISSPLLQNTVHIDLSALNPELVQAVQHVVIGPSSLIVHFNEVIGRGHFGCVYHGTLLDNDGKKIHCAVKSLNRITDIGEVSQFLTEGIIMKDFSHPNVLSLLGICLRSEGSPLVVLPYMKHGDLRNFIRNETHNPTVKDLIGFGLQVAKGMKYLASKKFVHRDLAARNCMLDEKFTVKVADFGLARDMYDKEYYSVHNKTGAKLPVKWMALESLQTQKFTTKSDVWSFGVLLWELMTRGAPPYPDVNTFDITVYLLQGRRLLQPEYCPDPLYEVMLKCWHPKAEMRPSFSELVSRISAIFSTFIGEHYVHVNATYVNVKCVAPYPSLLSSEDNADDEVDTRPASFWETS
attribute-measured: % inhibition of HGF stimulated phospho-Met (ELISA, HCT116 cells), Ab 2 µg/mL (%)
Numeric only. Scale: %

Briefly, % inhibition of HGF stimulated phospho-Met (ELISA, HCT116 cells), Ab 2 µg/mL measured for D11-C27G3 (antibody, human IgG2, kappa, V domains shown, Human engineered IgG2 kappa c-Met antibody; also called D11-27G3; D11-C27G3 IgG2) VH: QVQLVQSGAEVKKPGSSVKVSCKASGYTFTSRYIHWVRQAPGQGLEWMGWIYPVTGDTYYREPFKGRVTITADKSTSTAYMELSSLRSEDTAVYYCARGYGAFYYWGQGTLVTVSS VL: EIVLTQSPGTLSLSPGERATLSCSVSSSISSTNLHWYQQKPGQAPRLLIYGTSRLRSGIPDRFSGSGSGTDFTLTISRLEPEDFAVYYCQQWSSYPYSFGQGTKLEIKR : 31.8

Provenance of the data: patent US20100129369A1
